The following are reported IC50 results, target or system IAP (Homo sapiens).

INSERT INTO measurements (molecule, result) VALUES
  ('O=c1cc(-c2cccc3ccccc23)[nH][nH]1', '> 100 µM'),
  ('O=C1C2CC=CCC2C(=O)N1c1n[nH]c(Cc2ccccc2)n1 (stereo not shown)', '0.539 µM'),
  ('COc1ccc(C)cc1S(=O)(=O)Nc1cccnc1', '> 100 µM');

The record that follows has no IC50 shown yet.
Entry O=C(O)c1cc(-c2ccccc2Cl)n[nH]1 under IAP (Homo sapiens) had IC50 of 43.5 µM
